Test: yeast display, Sf9 membrane polyspecificity reagent, FACS + sequencing; frameworks hold sequencing errors
endpoint-label: polyreactivity (PSR sort gate)

Here's what some known entries look like.
QVQLVESGGGLVQAGGTLRLSCAASGSIVQSYAMGWYRQAPGKERELVAAITERGGSTYYADSVKGRFTISRDNAKNTVYLQMNSLKPEDTAVYYCAAKAVGLGKSWRGDDYWGQGTQVTVSS low polyreactivity
QVQLVESGGGLVQAGGSLRLSCAASGSTLAGYAMGWYRQAPGKERELVAAIDWTGGSTTYADSVKGRFTISRDNAKNTVYLQMNSLKPEDTAVYYCNVDLGVNGDYWGQGTQVTVSS low polyreactivity
QVKLVESGGGLVQSGGSLRLSCAAYGRIFATNAMGWYRPAPGKERELVATITRSAGRTYYADSVKGRFTISRVKAKHSVYLQMNRLKPEDTAVFYFAASYWDTGPGYREYDYWGEGTQVTVSS low polyreactivity
QVQLVESGGGLVQAGGSLRLSCAASGRTFRYYAMGWYREAPGKERELVAAISSSGDRTYYADSVKGRFTISRDNAKNTVYVQMNSLKPEDTAVYYCAKDSYRRYWGQGTQVTVSS high polyreactivity
QVQLVESGGGLVQAGGSLRLSCAASGSTFWPYAMGWYRQAPGKERELVAAISNGGGTKYADSVKGRFTISRDNAKNTVYLQMNSLKPEDTAVYYCAKTLWTGRAWYDYWGQGTQVTVSS high polyreactivity
QVQLVESGGGLVQAGGSLRLSCAASGLTISRYAMGWYRQAPGKEREFVASISISSVDTYYADSVKGRFTISRDNAKNTVYLQMNSLKPEDTAVYYCAAAGRVGVTRYYSWGQGTQVTVSS high polyreactivity
QVQLVESGGGLVQAGGSLRLSCAASGSIFQWYAMGWYRQAPGKERELVAAISWDGDSTYYADSVKGRFTISRDNAKNTVYLQMNSMNPEDTAVYYCAADYEWEYEYWGQGTQVTVSS high polyreactivity
QVQLVESGGGLVQAGGSLGLSCAASGIIFGTYGMGWYRQAPGKERELVAAITTRGSSTYYADSVKGRFTISRDNAKNSVYLQMNSLKPEDTAVYYCAAVSVRRNRMDSWGQGTQVTVSS high polyreactivity
QVQLVESGGGLVQAGGSLRLSCAASGITFYFYTMGWYRPAPGKERELVAAITSSGGTTYYADSVKGRFTISRDNAKNTVYLQMNSLKPEDTAVYYCAARRWYQSRRGGFDYWGQGTQVTVSS high polyreactivity
QVQLVESRGGLVQAGGSLRLSCAASGRIFRYNAMGWYRQAPGKERELVAAITWSGVSTYYADSVKGRFTISRDNAKNTGYLQMNSLKPEHTAVYYCNARRWPAWSSDDYWGQGTQVTVSS high polyreactivity

Now take the following sequence into account.
stdin: polyreactivity (PSR sort gate) for "QVQLVESGGGLVQAGGRLRLSCPASGRTFRGYARGWYRQAPRKERELLAAITSGGSTNYADSVKGRFTISRDNAKNTVYLQKKSLKPEDTAVYYCAADSWFYGGEYKLGYYWGQGTQVSVSS" ?
stdout: low polyreactivity

====

Assay: yeast display, Sf9 membrane polyspecificity reagent, FACS + sequencing; frameworks hold sequencing errors
endpoint-label: polyreactivity (PSR sort gate)

Here's what some known entries look like.
QVQLVESGGGLVQAGGSLRLSCAASGRTFWYYAMGWYRQAPGKERELVAAITYRGTRTYADSVKGRFTISRDNAKNTVYLQMNSQKPEDTPVYYCAKDVGYRYSRTMDYWGQGTQVTVSS high polyreactivity
QVQLVESGGGLVQAGGSLRLSCAASGLICPLNAMGWYRQAPGKERELVAAITYSGGGTYYADSVKGRFTISRDNAKNTVDLQMNSLKAEDTAVYYCAADGSVSYYTYYYWGQGTHVTVSS low polyreactivity
QVQLVESGGGLVQAGGSLRLSCAASGLTFYINDKGWYRQAPWKERELVAAINYSGGSTYYADSVKGRFTISRHNAKNTVYLQMNSLKPEDTAVYYCAADVSRWWGQHRYYSWGQGTQVTVSS high polyreactivity
QVQLVESGGGLVQAGGSLRLSCAASGSILWSYAMGWYRQAPGKERELVAAISGSTGSTYYADSVKGRFTISRDNAKNTVYLQMNSLKPEDTAVYYCAAEYYEDYDDYDYWGQGTQVTVSS low polyreactivity

stdin: polyreactivity (PSR sort gate) for "QVQLVESGGGLVQAGGSLRLSCAASGSTFRIYVMGWYRQAPGKEREFVAAISRGGGSTYYADSVKGRFTISRDNAKNTVYLQMNSLKPEDTAVYYCAAVTRDYGSRSGLDYWGQGTQVTVSS" ?
stdout: high polyreactivity
